# Tested on: NCI-H23 lung
# test_description: NCI tumour cell line growth inhibition, 48 h
property_name: TGI (µM)

- molecule: "COc1ccc(/C(C)=C(\\c2ccc(Cl)cc2)c2ccc(OCCN3CCCC3)cc2)cc1"
  target_desc: "NCI-H23 lung"
  operator: "="
  quantitative_result: 8.98
- molecule: "CCOC(=O)C(C)(C)Oc1ccc2c(=O)cc(-c3ccccc3)oc2c1"
  target_desc: "NCI-H23 lung"
  operator: "="
  quantitative_result: 34.9
- molecule: "c1ccc(CCN2CCCCCC2)nc1"
  target_desc: "NCI-H23 lung"
  operator: ">"
  quantitative_result: 100
- molecule: "Nc1nc(Cl)cc(N=Nc2ccccc2)n1"
  target_desc: "NCI-H23 lung"
  operator: "="
  quantitative_result: 55.5
- molecule: "CC(C)(C)N=C1CC(C)(C)c2ccccc2C(=Nc2ccccc2)S1"
  target_desc: "NCI-H23 lung"
  operator: "="
  quantitative_result: 98.6
- molecule: "COc1cccc(NC(=O)CSc2nnc(-c3ccc(N=Cc4ccc(Cl)cc4)cc3)o2)c1"
  target_desc: "NCI-H23 lung"
  operator: "="
  quantitative_result: 41.1
- molecule: "O=C(CC(O)(C(F)(F)F)C(F)(F)F)C(CCCl)C(O)(C(F)(F)F)C(F)(F)F (stereo not given)"
  target_desc: "NCI-H23 lung"
  operator: "="
  quantitative_result: 83.9
- molecule: "O=C(CC(=O)N1N=C(c2ccccc2)C(N=Nc2ccc(C(=O)O)cc2)C1=O)Nc1ccc(F)cc1 (stereo not given)"
  target_desc: "NCI-H23 lung"
  operator: "="
  quantitative_result: 90.2
- molecule: "O=NC1c2cccc3cccc(c23)C1N=O (stereo not given)"
  target_desc: "NCI-H23 lung"
  operator: "="
  quantitative_result: 32.3
- molecule: "CCCCCCCCCCCCn1c(C)nc2ccccc21"
  target_desc: "NCI-H23 lung"
  operator: "="
  quantitative_result: 11.5
- molecule: "C#CCN1C(=O)/C(=c2\\sc3n(c2=O)C2C(NN=3)N(CC)C(=O)N2CC)c2ccccc21 (stereo not given)"
  target_desc: "NCI-H23 lung"
  operator: "="
  quantitative_result: 37.2
- molecule: "O=C(/C=C/c1ccc(-c2ccccc2[N+](=O)[O-])o1)NCc1ccc(C(=O)NCCc2ccccc2)cc1"
  target_desc: "NCI-H23 lung"
  operator: ">"
  quantitative_result: 100
- molecule: "CC(C)C[C@H](NC(=O)[C@H](CCc1ccccc1)NC(=O)CN1CCOCC1)C(=O)N[C@@H](Cc1ccccc1)C(=O)N[C@@H](CC(C)C)C(=O)[C@@]1(C)CO1"
  target_desc: "NCI-H23 lung"
  operator: "="
  quantitative_result: 0.115
- molecule: "Cc1cccc(C(C)(C)C)c1NC(=O)/C(Cc1nc2ccc([N+](=O)[O-])cc2[nH]c1=O)=N/NC(=O)C[N+](C)(C)C"
  target_desc: "NCI-H23 lung"
  operator: ">"
  quantitative_result: 100
- molecule: "C/C(O)=C(\\C=N\\C(N)=S)C(=O)Nc1ccccc1C"
  target_desc: "NCI-H23 lung"
  operator: ">"
  quantitative_result: 100
- molecule: "COc1ccc(-c2ccc3c(NC(=O)C4CC4)n[nH]c3n2)cc1"
  target_desc: "NCI-H23 lung"
  operator: ">"
  quantitative_result: 25
- molecule: "COc1cc(-c2cc(-c3ccc(N(C)C)cc3)nc(N3CCOCC3)c2C#N)cc(OC)c1OC"
  target_desc: "NCI-H23 lung"
  operator: ">"
  quantitative_result: 100
- molecule: "CC(C)(CO)CNc1nc(N)nc(Cl)c1N"
  target_desc: "NCI-H23 lung"
  operator: ">"
  quantitative_result: 100
- molecule: "C(=N\\Nc1nnc2c(n1)[nH]c1ccccc12)/c1cccnc1"
  target_desc: "NCI-H23 lung"
  operator: ">"
  quantitative_result: 100
- molecule: "CCCCCc1cc2c(cc1O)CC[C@@H]1[C@@H]2CC[C@]2(C)[C@@H](O)CC[C@@H]12"
  target_desc: "NCI-H23 lung"
  operator: "="
  quantitative_result: 40.3
- molecule: "C=CCC(CNC(=O)OCc1ccccc1)O[Si](C)(C)C(C)(C)C (stereo not given)"
  target_desc: "NCI-H23 lung"
  operator: ">"
  quantitative_result: 100
- molecule: "CCN1CCN(c2nc(NNC(=O)Cc3ccccc3)nc(N3CCN(C(c4ccccc4)c4ccccc4)CC3)n2)CC1"
  target_desc: "NCI-H23 lung"
  operator: "="
  quantitative_result: 18.8
- molecule: "COC(=O)C(/C(=N/NC(=O)c1ccncc1)C(=O)Nc1ccccc1OC)c1nc2ccc(Cl)cc2[nH]c1=O (stereo not given)"
  target_desc: "NCI-H23 lung"
  operator: ">"
  quantitative_result: 100
- molecule: "COc1cc(C)c(C(=O)O[C@H]2[C@H](O[C@H]3[C@@H](O)COC(O[C@H]4C[C@H]5[C@@H]6CC=C7C[C@@H](O)CC[C@]7(C)[C@H]6CC[C@]5(C)[C@H]4[C@H](C)C(=O)CCC(C)C)[C@@H]3OC(C)=O)OC[C@@H](O)[C@@H]2O)c(C)c1 (stereo not given in full)"
  target_desc: "NCI-H23 lung"
  operator: "="
  quantitative_result: 14.2
- molecule: "COc1ccc(/C=C2\\Cc3ccccc3C2=O)cc1OC"
  target_desc: "NCI-H23 lung"
  operator: ">"
  quantitative_result: 100
- molecule: "COc1ccc(SC2c3cc(OC)c(OC)cc3Oc3nc(N)c(C#N)c(N)c32)cc1 (stereo not given)"
  target_desc: "NCI-H23 lung"
  operator: "="
  quantitative_result: 3.01
- molecule: "CC(=O)O[C@H]1C#C/C=C\\C#CC[C@@H]2C(=O)N(C(=O)OC(C)(C)C)[C@@H]12"
  target_desc: "NCI-H23 lung"
  operator: ">"
  quantitative_result: 69
- molecule: "O=c1[nH]cc(CS(=O)(=O)Cc2c[nH]c(=O)[nH]c2=O)c(=O)[nH]1"
  target_desc: "NCI-H23 lung"
  operator: ">"
  quantitative_result: 100
- molecule: "Nc1[nH]c(=O)ncc1F"
  target_desc: "NCI-H23 lung"
  operator: ">"
  quantitative_result: 100
- molecule: "CCc1nnc(-n2c(C)nc3cc(Cl)ccc3c2=O)s1"
  target_desc: "NCI-H23 lung"
  operator: ">"
  quantitative_result: 100
- molecule: "O=C(C1=C(C(=O)c2ccccc2)SC2(S1)C(C(=O)c1ccccc1)=C(C(=O)c1ccccc1)Sc1c2ssc1=O)c1ccccc1"
  target_desc: "NCI-H23 lung"
  operator: ">"
  quantitative_result: 100
- molecule: "O=C(N/N=C(/c1nc2ccc(Cl)cc2[nH]c1=O)C(O)c1ccc(Cl)cc1Cl)c1ccncc1 (stereo not given)"
  target_desc: "NCI-H23 lung"
  operator: ">"
  quantitative_result: 100
- molecule: "COC(=O)C(=O)C1(CCC(C)=O)c2ccccc2-c2ccccc21"
  target_desc: "NCI-H23 lung"
  operator: ">"
  quantitative_result: 100
- molecule: "CC(=O)NC1C(CO)O[C@@H]2OC(C)(C)O[C@H]12 (stereo not given in full)"
  target_desc: "NCI-H23 lung"
  operator: ">"
  quantitative_result: 100
- molecule: "CS(=O)(=O)OCCN1CCC2(CC1)SSC1(CCN(CCOS(C)(=O)=O)CC1)S2"
  target_desc: "NCI-H23 lung"
  operator: ">"
  quantitative_result: 100
- molecule: "CCOC1OCCCC1Br (stereo not given)"
  target_desc: "NCI-H23 lung"
  operator: ">"
  quantitative_result: 100
- molecule: "CCOC(=O)c1cc2c(OC(C)=O)ccc(OC(C)=O)c2s1"
  target_desc: "NCI-H23 lung"
  operator: "="
  quantitative_result: 5.51
- molecule: "CC[C@@]1(O)C(=O)NCc2c1cc1n(c2=O)Cc2cc3ccccc3nc2-1"
  target_desc: "NCI-H23 lung"
  operator: "="
  quantitative_result: 5.86
- molecule: "O=c1[nH]c(=O)n(C2OC(COP(=O)(O)OP(=O)(O)O)C(O)C2O)cc1F (stereo not given)"
  target_desc: "NCI-H23 lung"
  operator: ">"
  quantitative_result: 50
- molecule: "O=C1NC(=O)/C(=C/C=C/c2ccccc2)S1"
  target_desc: "NCI-H23 lung"
  operator: ">"
  quantitative_result: 41.4
